Target: human TREM2/DAP12 fusion protein (human, UniProt O43914 41-113, limits assumed)
Sequence (O43914 other isoform, or with tags, fused parts or gaps limits assumed): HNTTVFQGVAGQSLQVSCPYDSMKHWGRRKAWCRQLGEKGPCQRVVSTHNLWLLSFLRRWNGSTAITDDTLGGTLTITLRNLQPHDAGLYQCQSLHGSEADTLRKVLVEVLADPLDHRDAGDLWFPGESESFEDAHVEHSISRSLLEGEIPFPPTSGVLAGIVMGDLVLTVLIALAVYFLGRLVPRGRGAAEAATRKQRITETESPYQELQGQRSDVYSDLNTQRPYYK
Assay: cell-based or functional assay
Recorded BW Luc assay soluble 7.3 nM IgG, FOC values for a group of binders are listed next.
RESULT_TYPE: BW Luc assay soluble 7.3 nM IgG, FOC (FOC)

{"BINDER": "AL2p-40 (antibody, IgG1, V domains shown, Fab and IgG formats under one id) VH: QVQLVQSGAEVKKPGSSVKVSCKASGYAFSSHWMNWVRQAPGQGLEWMGRIYPGGGDTNYAQKFRGRVTITADESTSTAYMELSSLRSEDTAVYYCARLLRNQPGASYAMDYWGQGTLVTVSS VL: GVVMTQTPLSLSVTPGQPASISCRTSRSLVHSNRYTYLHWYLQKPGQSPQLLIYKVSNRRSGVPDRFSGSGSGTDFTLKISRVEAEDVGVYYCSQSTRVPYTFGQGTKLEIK", "NUMBER": 9.92}
{"BINDER": "AL2p-41 (antibody, IgG1, V domains shown, Fab and IgG formats under one id) VH: QVQLVQSGAEVKKPGSSVKVSCKASGYAFSSHWMNWVRQAPGQGLEWMGRIYPGEGDTNYAQKFRGRVTITADESTSTAYMELSSLRSEDTAVYYCARLLRNQPGASYAMDYWGQGTLVTVSS VL: GVVMTQTPLSLSVTPGQPASISCRSSRSLVHSNQYTYLHWYLQKPGQSPQLLIYKVSNRRSGVPDRFSGSGSGTDFTLKISRVEAEDVGVYYCSQSTRVPYTFGQGTKLEIK", "NUMBER": 2.92}
{"BINDER": "AL2p-54 (antibody, V domains shown, Fab and IgG formats under one id) VH: QVQLVQSGAEVKKPGSSVKVSCKASGYAFSSHWMNWVRQAPGQGLEWMGRIYPGEGDTNYAQKFHGRVTITADESTSTAYMELSSLRSEDTAVYYCARLLRNKPGESYAMDYWGQGTLVTVSS VL: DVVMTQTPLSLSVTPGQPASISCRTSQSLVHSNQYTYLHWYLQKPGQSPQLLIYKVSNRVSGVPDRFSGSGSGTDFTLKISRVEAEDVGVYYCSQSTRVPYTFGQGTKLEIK", "NUMBER": 2.17}
